ASSAYED SYSTEM: murine CCR2 (Mus musculus, UniProt P51683)
Construct: host or cells: U2OS β-arrestin cell line
Sequence (P51683 whole entry): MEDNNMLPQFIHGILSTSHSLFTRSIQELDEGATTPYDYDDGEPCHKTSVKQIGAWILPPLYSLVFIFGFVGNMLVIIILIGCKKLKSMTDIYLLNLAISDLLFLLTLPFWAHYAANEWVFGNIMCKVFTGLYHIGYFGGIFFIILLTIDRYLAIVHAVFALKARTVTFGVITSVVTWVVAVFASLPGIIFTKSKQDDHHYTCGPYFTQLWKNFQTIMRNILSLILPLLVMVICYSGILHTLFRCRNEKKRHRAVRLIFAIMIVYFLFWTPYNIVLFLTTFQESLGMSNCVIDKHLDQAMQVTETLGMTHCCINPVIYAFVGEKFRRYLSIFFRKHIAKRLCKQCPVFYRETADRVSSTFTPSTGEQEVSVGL
METHOD SUMMARY: Functional β-arrestin recruiting test with murine MCP-1 (B-2b)
Format: cell-based
TEST PARAMETERS: U2OS β-arrestin cell line transfected with murine CCR2; agonist murine MCP-1; in some cases means of several determinations
MEASURED QUANTITY: IC50 (nM)

(I) O=c1[nH]c(-c2nsc(Cl)c2Cl)nc(C(F)(F)F)c1Oc1ccc(Cl)c(Cl)c1
(II) CC(C)(C)Sc1cccnc1-c1nc(C(F)(F)F)c(Oc2ccc(Cl)c(Cl)c2)c(=O)[nH]1
Kindly identify which of I and II has the larger recorded IC50 value. Selection: enter the item's label. II
